# credit: BindingDB's records for doi:10.1021/jm00107a033

Assay: Binding affinity towards sigma opioid receptor in guinea pig cerebral homogenate using [3H]DTG as radioligand
pKi: −log10 of the molar value.
readout_label: pKi

INSERT INTO results (molecule, readout_label, quantitative_readout) VALUES
  ('C[C@H](Cc1ccccc1)NCCc1ccccc1', 'pKi', 7.22);
